test.target: NFAST (Halorhodospira halophila, UniProt P16113, C69G/D97P/F96I/M100R/Q99S/T101G/T95M/Y94W/Y98T)
Construct: His tag (N); made in house; host or cells: Rosetta (DE3) pLysS E. coli
Sequence (P16113 1-114 C69G/Y94W/T95M/F96I/D97P/Y98T/Q99S/M100R/T101G): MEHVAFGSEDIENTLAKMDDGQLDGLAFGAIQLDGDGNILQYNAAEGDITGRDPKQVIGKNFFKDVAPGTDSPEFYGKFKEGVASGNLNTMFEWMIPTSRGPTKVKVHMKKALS
assay.details: Thermodynamic dissociation constants of NFAST:CFASTn couples in the presence of fluorogen (plate reader, one-site specific binding fit)
particulars: KD of NFAST-CFASTn 10 μM HMBR, in the presence of 10 μM HMBR; synthetic CFASTn peptide and purified NFAST
Protocol: In one embodiment, the thermodynamic dissociation constant KD is determined by spectrofluorometric titration as described in the Examples. Expression vectors were transformed in Rosetta (DE3) pLysS E. coli (NEW ENGLAND BIOLABS®). […] Thermodynamic dissociation constants for NFAST:CFASTn (n=8 to 11) couples were determined using peptides synthesized for CFASTn (n=8 to 11) and recombinantly purified NFAST. […]
experimental.readout: Kd

QUERY: Reported Kd for Ac-GDSYWVFVK-NH2 [CFAST9] : what is it?
RESULT: 5.7 µM

QUERY: Reported Kd for Ac-GDSYWVFVKR-NH2 [CFAST10] : what is it?
RESULT: 0.95 µM

QUERY: Reported Kd for Ac-GDSYWVFVKRV-NH2 [CFAST11] : what is it?
RESULT: 0.21 µM

QUERY: Reported Kd for Ac-GDSYWVFV-NH2 [CFAST8] : what is it?
RESULT: 21 µM

====

test.target: NFAST (Halorhodospira halophila, UniProt P16113, C69G/D97P/F96I/M100R/Q99S/T101G/T95M/Y94W/Y98T)
Construct: His tag (N); made in house; host or cells: Rosetta (DE3) pLysS E. coli
assay.details: Thermodynamic dissociation constants of NFAST:CFASTn couples in the presence of fluorogen (plate reader, one-site specific binding fit)
particulars: KD of NFAST-CFASTn 10 μM HBR-3,5-DOM, in the presence of 10 μM HBR-3,5-DOM; synthetic CFASTn peptide and purified NFAST
Can you tell me Kd for the items I'm about to list?
State the result as a value with its unit after it.

QUERY: Reported Kd for Ac-GDSYWVFVKR-NH2 [CFAST10] : what is it?
RESULT: 6.2 µM

QUERY: Reported Kd for Ac-GDSYWVFVKRV-NH2 [CFAST11] : what is it?
RESULT: 1.4 µM

QUERY: Reported Kd for Ac-GDSYWVFVK-NH2 [CFAST9] : what is it?
RESULT: 25 µM
